This collection of values is drawn from patent US20120064056A1.

System: isolated rat hearts
Assay: Isolated working rat heart, aerobic perfusion: cardiac function and efficiency
Details: aerobically perfused; DCA 2 mM, diltiazem 0.8 μM, digoxin 3 nM, metoprolol 1 μM, dobutamine 1 μM
Procedure: […] Spontaneously beating hearts were used in all perfusions. Heart rate and aortic pressure were measured with a Biopac Systems Inc. blood pressure transducer connected to the aortic outflow line. Cardiac output and aortic flow were measured with Transonic T206 ultrasonic flow probes in the preload and afterload lines, respectively. Coronary flow was calculated as the difference between cardiac output and aortic flow. […] Cardiac work was calculated as the product of systolic pressure and cardiac output. […]
propertyMeasured: Cardiac Efficiency (CW · O2^−1)

[[record]]
compound = "CC(CCc1ccc(O)cc1)NCCc1ccc(O)c(O)c1 (stereo not shown)"
readoutnumber = 1.56

[[record]]
compound = "COc1ccc([C@@H]2Sc3ccccc3N(CCN(C)C)C(=O)[C@@H]2OC(C)=O)cc1"
readoutnumber = 1.63

[[record]]
compound = "O=C(O)C(Cl)Cl [DCA, dichloroacetate]"
readoutnumber = 1.69

[[record]]
compound = "COCCc1ccc(OCC(O)CNC(C)C)cc1 (stereo not shown)"
readoutnumber = 1.85


###

Below, each entry is listed with its recorded HR × PSP.
test system: isolated rat hearts; assay: Isolated working rat heart, aerobic perfusion: cardiac function and efficiency; details: aerobically perfused; DCA 2 mM, diltiazem 0.8 μM, digoxin 3 nM, metoprolol 1 μM, dobutamine 1 μM
propertyMeasured: HR × PSP

[[record]]
compound = "C[C@H]1O[C@@H](O[C@H]2[C@@H](O)C[C@H](O[C@H]3[C@@H](O)C[C@H](O[C@H]4CC[C@@]5(C)[C@H](CC[C@@H]6[C@@H]5C[C@@H](O)[C@]5(C)[C@@H](C7=CC(=O)OC7)CC[C@]65O)C4)O[C@@H]3C)O[C@@H]2C)C[C@H](O)[C@@H]1O [Digoxin, digoxin]"
propertymeasured = "HR × PSP"
result = "32 ± 1 beats · min^−1 · mmHg · 10^−2"

[[record]]
compound = "COCCc1ccc(OCC(O)CNC(C)C)cc1 (centres unmarked) [Metoprolol, metoprolol]"
propertymeasured = "HR × PSP"
result = "32 ± 4 beats · min^−1 · mmHg · 10^−2"

[[record]]
compound = "O=C(O)C(Cl)Cl [DCA, dichloroacetate]"
propertymeasured = "HR × PSP"
result = "32 ± 1 beats · min^−1 · mmHg · 10^−2"

[[record]]
compound = "CC(CCc1ccc(O)cc1)NCCc1ccc(O)c(O)c1 (centres unmarked) [Dobutamine, dobutamine]"
propertymeasured = "HR × PSP"
result = "40 ± 2 beats · min^−1 · mmHg · 10^−2"

[[record]]
compound = "COc1ccc([C@@H]2Sc3ccccc3N(CCN(C)C)C(=O)[C@@H]2OC(C)=O)cc1 [Diltiazem, diltiazem]"
propertymeasured = "HR × PSP"
result = "25 ± 1 beats · min^−1 · mmHg · 10^−2"


###

tested on: isolated rat hearts; assay: Isolated working rat heart, aerobic perfusion: glycolysis and glucose oxidation; design: unit not given here; conditions: normal hearts, aerobic; FIG. 2, 4, 6, 8; control 3.430±0.604; DCA 2 mM, digoxin 3 nM, diltiazem 0.8 μM, dobutamine 1 μM, metoprolol 1 μM
propertyMeasured: glycolytic rates (glycolysis)

[[record]]
molecule = "O=C(O)C(Cl)Cl [DCA, dichloroacetate]"
propertymeasured = "glycolytic rates (glycolysis)"
readoutnumber = 8.917

[[record]]
molecule = "C[C@H]1O[C@@H](O[C@H]2[C@@H](O)C[C@H](O[C@H]3[C@@H](O)C[C@H](O[C@H]4CC[C@@]5(C)[C@H](CC[C@@H]6[C@@H]5C[C@@H](O)[C@]5(C)[C@@H](C7=CC(=O)OC7)CC[C@]65O)C4)O[C@@H]3C)O[C@@H]2C)C[C@H](O)[C@@H]1O [Digoxin, digoxin]"
propertymeasured = "glycolytic rates (glycolysis)"
readoutnumber = 5.651

[[record]]
molecule = "COc1ccc([C@@H]2Sc3ccccc3N(CCN(C)C)C(=O)[C@@H]2OC(C)=O)cc1 [Diltiazem, diltiazem]"
propertymeasured = "glycolytic rates (glycolysis)"
readoutnumber = 0.727

[[record]]
molecule = "COCCc1ccc(OCC(O)CNC(C)C)cc1 (centres unmarked) [Metoprolol, metoprolol]"
propertymeasured = "glycolytic rates (glycolysis)"
readoutnumber = 4.530

[[record]]
molecule = "CC(CCc1ccc(O)cc1)NCCc1ccc(O)c(O)c1 (centres unmarked) [Dobutamine, dobutamine]"
propertymeasured = "glycolytic rates (glycolysis)"
readoutnumber = 13.365

